The reader will find reported Absorption maximum (nm) values listed item by item below.
# protocol.summary: Comparison of relative fluorescence quantum yield (absorption and fluorescence spectra of dye solutions)
# Format: physicochemical
# condition.notes: ethanol solution of dye
measured.attribute: Absorption maximum (nm)

compound	result
CC(CC[n+]1cc(C#Cc2ccc(N(CCCS(=O)(=O)[O-])S(C)(=O)=O)cc2)cc2c1N=C(/C=C/C=C1\N=C3C(=CC(C#Cc4ccc(N(CCCS(=O)(=O)[O-])S(C)(=O)=O)cc4)=CN3CCCCCC(=O)O)C1(C)C)C2(C)C)S(=O)(=O)[O-].[K+].[K+] (stereo not shown) [Compound I-11]	651
CC1(C)C2=CC(C#Cc3cccc(N(CCCS(=O)(=O)[O-])S(C)(=O)=O)c3)=CN(CCCCCC(=O)O)C2=N/C1=C\C=C\C1=Nc2c(cc(C#Cc3cccc(N(CCCS(=O)(=O)[O-])S(C)(=O)=O)c3)c[n+]2CCCS(=O)(=O)[O-])C1(C)C.[K+].[K+] [Compound I-12]	650
CC[N+]1=C(/C=C/C=C/C=C2/N(CCCCCC(=O)O)c3ccc(S(=O)(=O)[O-])cc3C2(C)C)C(C)(C)c2cc(S(=O)(=O)[O-])ccc21.[K+] [compound 2, reference compound]	645
CC(CCN1C=C(C#Cc2ccc(N(CCCS(=O)(=O)[O-])S(C)(=O)=O)cc2)C=C2C1=N/C(=C\C=C\C1=Nc3c(cc(C#Cc4ccc(N(CCCCCC(=O)O)S(C)(=O)=O)cc4)c[n+]3CCC(C)S(=O)(=O)[O-])C1(C)C)C2(C)C)S(=O)(=O)[O-].[K+].[K+] (stereo not shown) [Compound I-13]	651

* * *

The reader will find reported Fluorescence maximum (nm) values listed item by item below.
# protocol.summary: Comparison of relative fluorescence quantum yield (absorption and fluorescence spectra of dye solutions)
# Format: physicochemical
# condition.notes: ethanol solution of dye, absorbance 0.1 at 620 nm; spectrum measured at 620 nm

compound	Fluorescence maximum (nm)
CC1(C)C2=CC(C#Cc3cccc(N(CCCS(=O)(=O)[O-])S(C)(=O)=O)c3)=CN(CCCCCC(=O)O)C2=N/C1=C\C=C\C1=Nc2c(cc(C#Cc3cccc(N(CCCS(=O)(=O)[O-])S(C)(=O)=O)c3)c[n+]2CCCS(=O)(=O)[O-])C1(C)C.[K+].[K+] [Compound I-12]	671
CC(CC[n+]1cc(C#Cc2ccc(N(CCCS(=O)(=O)[O-])S(C)(=O)=O)cc2)cc2c1N=C(/C=C/C=C1\N=C3C(=CC(C#Cc4ccc(N(CCCS(=O)(=O)[O-])S(C)(=O)=O)cc4)=CN3CCCCCC(=O)O)C1(C)C)C2(C)C)S(=O)(=O)[O-].[K+].[K+] (stereo not shown) [Compound I-11]	672
CC(CCN1C=C(C#Cc2ccc(N(CCCS(=O)(=O)[O-])S(C)(=O)=O)cc2)C=C2C1=N/C(=C\C=C\C1=Nc3c(cc(C#Cc4ccc(N(CCCCCC(=O)O)S(C)(=O)=O)cc4)c[n+]3CCC(C)S(=O)(=O)[O-])C1(C)C)C2(C)C)S(=O)(=O)[O-].[K+].[K+] (stereo not shown) [Compound I-13]	672
CC[N+]1=C(/C=C/C=C/C=C2/N(CCCCCC(=O)O)c3ccc(S(=O)(=O)[O-])cc3C2(C)C)C(C)(C)c2cc(S(=O)(=O)[O-])ccc21.[K+] [compound 2, reference compound]	664

* * *

# protocol.summary: Comparison of relative fluorescence quantum yield (absorption and fluorescence spectra of dye solutions)
# Format: physicochemical
# condition.notes: ethanol solution, absorbance 0.1 at 620 nm; area of fluorescence spectrum relative to Crystal Violet (Φf=0.54)

compound	Relative fluorescence quantum yield
CC(CC[n+]1cc(C#Cc2ccc(N(CCCS(=O)(=O)[O-])S(C)(=O)=O)cc2)cc2c1N=C(/C=C/C=C1\N=C3C(=CC(C#Cc4ccc(N(CCCS(=O)(=O)[O-])S(C)(=O)=O)cc4)=CN3CCCCCC(=O)O)C1(C)C)C2(C)C)S(=O)(=O)[O-].[K+].[K+] (stereo not shown) [Compound I-11]	0.63
CC1(C)C2=CC(C#Cc3cccc(N(CCCS(=O)(=O)[O-])S(C)(=O)=O)c3)=CN(CCCCCC(=O)O)C2=N/C1=C\C=C\C1=Nc2c(cc(C#Cc3cccc(N(CCCS(=O)(=O)[O-])S(C)(=O)=O)c3)c[n+]2CCCS(=O)(=O)[O-])C1(C)C.[K+].[K+] [Compound I-12]	0.62
CC[N+]1=C(/C=C/C=C/C=C2/N(CCCCCC(=O)O)c3ccc(S(=O)(=O)[O-])cc3C2(C)C)C(C)(C)c2cc(S(=O)(=O)[O-])ccc21.[K+] [compound 2, reference compound]	0.27
CC(CCN1C=C(C#Cc2ccc(N(CCCS(=O)(=O)[O-])S(C)(=O)=O)cc2)C=C2C1=N/C(=C\C=C\C1=Nc3c(cc(C#Cc4ccc(N(CCCCCC(=O)O)S(C)(=O)=O)cc4)c[n+]3CCC(C)S(=O)(=O)[O-])C1(C)C)C2(C)C)S(=O)(=O)[O-].[K+].[K+] (stereo not shown) [Compound I-13]	0.63

Every entry's value here was drawn from patent US6794509B1.
